Test system: Saccharomyces cerevisiae
Assay: protein stability index of tFT-peptide fusion (C-terminal peptide) (PSI (0-1 scale)); higher = more stable (slower turnover)
Conditions: genetic background: wild type; temperature: 30 C
reportedMetric: protein stability index
Just the number.

INPUT: Fill blank: measured protein stability index of the sequence LMKLFKSSKFSK [GEM1 C-terminal 12 aa] is ____.
OUTPUT: 0.694

INPUT: Fill blank: measured protein stability index of the sequence REVREIHEMYCK [YKR012C C-terminal 12 aa] is ____.
OUTPUT: 0.689

INPUT: Fill blank: measured protein stability index of the sequence CIPLINYHLRKS [CBS1 C-terminal 12 aa] is ____.
OUTPUT: 0.673

INPUT: Fill blank: measured protein stability index of the sequence ISICILDLASHL [YBL071C C-terminal 12 aa] is ____.
OUTPUT: 0.669

INPUT: Fill blank: measured protein stability index of the sequence TSDHLFVVFFFW [YDL034W C-terminal 12 aa] is ____.
OUTPUT: 0.319

INPUT: Fill blank: measured protein stability index of the sequence SLCKNTIISSSV [YAL063C-A C-terminal 12 aa] is ____.
OUTPUT: 0.703

====

System: Saccharomyces cerevisiae
Assay: protein stability index of tFT-peptide fusion (C-terminal peptide) (PSI (0-1 scale)); higher = more stable (slower turnover)
Details: genetic background: das1 deletion; temperature: 30 C
// Not met strictly below 0.7 in protein stability index; Met otherwise

INPUT: Decide: is the reported value of protein stability index for ATLINILLELFS [ECM27 C-terminal 12 aa] equal to or greater than 0.7?
OUTPUT: Not met

INPUT: Decide: is the reported value of protein stability index for CEYGTNAIDALI [YER091C-A C-terminal 12 aa] equal to or greater than 0.7?
OUTPUT: Met

INPUT: Decide: is the reported value of protein stability index for IKKEVSRRLNGR [CUR1 C-terminal 12 aa] equal to or greater than 0.7?
OUTPUT: Not met

====

Test system: Saccharomyces cerevisiae
Experiment: protein stability index of tFT-peptide fusion (C-terminal peptide) (PSI (0-1 scale)); higher = more stable (slower turnover)
Conditions: genetic background: wild type; temperature: 30 C
// not fulfilled strictly below 0.7 in protein stability index; fulfilled otherwise

INPUT: Decide: is the reported value of protein stability index for RGPGKKQIISQK equal to or greater than 0.7?
OUTPUT: fulfilled

INPUT: Decide: is the reported value of protein stability index for FPLPPPPSLSTP equal to or greater than 0.7?
OUTPUT: not fulfilled

INPUT: Decide: is the reported value of protein stability index for EKKKKTIRKRMT equal to or greater than 0.7?
OUTPUT: not fulfilled

INPUT: Decide: is the reported value of protein stability index for LWALPTPPPSGH equal to or greater than 0.7?
OUTPUT: not fulfilled

INPUT: Decide: is the reported value of protein stability index for VFFVLAVVGADA equal to or greater than 0.7?
OUTPUT: not fulfilled

INPUT: Decide: is the reported value of protein stability index for DKPVDTRPGSPG equal to or greater than 0.7?
OUTPUT: not fulfilled

INPUT: Decide: is the reported value of protein stability index for GFRWGYIGGWRW equal to or greater than 0.7?
OUTPUT: fulfilled

====

Test system: Saccharomyces cerevisiae
Assay: protein stability index of tFT-peptide fusion (C-terminal peptide) (PSI (0-1 scale)); higher = more stable (slower turnover)
Settings: genetic background: cdc53-1; temperature: 37 C
// 0 strictly below 0.7 in protein stability index; 1 otherwise

INPUT: Decide: is the reported value of protein stability index for VFFSLSLILFPF equal to or greater than 0.7?
OUTPUT: 0

INPUT: Decide: is the reported value of protein stability index for PPVPRLLPVLAP equal to or greater than 0.7?
OUTPUT: 0

INPUT: Decide: is the reported value of protein stability index for LSCCIVLLIIFV equal to or greater than 0.7?
OUTPUT: 0

INPUT: Decide: is the reported value of protein stability index for PCLPLTPMWTLF equal to or greater than 0.7?
OUTPUT: 1

INPUT: Decide: is the reported value of protein stability index for QPTPQSALAKHQ equal to or greater than 0.7?
OUTPUT: 1

INPUT: Decide: is the reported value of protein stability index for VWSCILPMVYVW equal to or greater than 0.7?
OUTPUT: 0

INPUT: Decide: is the reported value of protein stability index for TSRRPFVLVMWL equal to or greater than 0.7?
OUTPUT: 0

INPUT: Decide: is the reported value of protein stability index for FFLLTCFLLPSV equal to or greater than 0.7?
OUTPUT: 0

INPUT: Decide: is the reported value of protein stability index for EGREGGGRGEVL equal to or greater than 0.7?
OUTPUT: 0

INPUT: Decide: is the reported value of protein stability index for ERNERKYKIKIT equal to or greater than 0.7?
OUTPUT: 1

INPUT: Decide: is the reported value of protein stability index for YVRHDKLILSFC equal to or greater than 0.7?
OUTPUT: 0

INPUT: Decide: is the reported value of protein stability index for VVFVFIDLGLCV equal to or greater than 0.7?
OUTPUT: 0

INPUT: Decide: is the reported value of protein stability index for PSSPTPPPSSSP equal to or greater than 0.7?
OUTPUT: 1

INPUT: Decide: is the reported value of protein stability index for PALVVALLASVL equal to or greater than 0.7?
OUTPUT: 0

INPUT: Decide: is the reported value of protein stability index for LSFLLLLGCFGS equal to or greater than 0.7?
OUTPUT: 0

INPUT: Decide: is the reported value of protein stability index for SLCELRCLLRVG equal to or greater than 0.7?
OUTPUT: 0

INPUT: Decide: is the reported value of protein stability index for VARWVYALGLLC equal to or greater than 0.7?
OUTPUT: 0

INPUT: Decide: is the reported value of protein stability index for EVVFHVFLVGLV equal to or greater than 0.7?
OUTPUT: 0

INPUT: Decide: is the reported value of protein stability index for ARKIGKVIPKLG equal to or greater than 0.7?
OUTPUT: 1

INPUT: Decide: is the reported value of protein stability index for VVLWVVCWGCWK equal to or greater than 0.7?
OUTPUT: 0

INPUT: Decide: is the reported value of protein stability index for RIAIRSAVICAS equal to or greater than 0.7?
OUTPUT: 0

INPUT: Decide: is the reported value of protein stability index for PVLPPPLLLCPC equal to or greater than 0.7?
OUTPUT: 0

INPUT: Decide: is the reported value of protein stability index for RGFVVFCIPCFV equal to or greater than 0.7?
OUTPUT: 0

INPUT: Decide: is the reported value of protein stability index for KFWVVLIEIKYH equal to or greater than 0.7?
OUTPUT: 0

INPUT: Decide: is the reported value of protein stability index for PTPSRPPHPPLR equal to or greater than 0.7?
OUTPUT: 1

INPUT: Decide: is the reported value of protein stability index for NFFIQFHNLLFP equal to or greater than 0.7?
OUTPUT: 1

INPUT: Decide: is the reported value of protein stability index for PLLSATLTRRLA equal to or greater than 0.7?
OUTPUT: 0

INPUT: Decide: is the reported value of protein stability index for LCVGFISFCFCL equal to or greater than 0.7?
OUTPUT: 0

INPUT: Decide: is the reported value of protein stability index for LSVRLYRTVFLV equal to or greater than 0.7?
OUTPUT: 0

INPUT: Decide: is the reported value of protein stability index for KTDVYPVSFFTC equal to or greater than 0.7?
OUTPUT: 1

INPUT: Decide: is the reported value of protein stability index for LRKARLFLKAKC equal to or greater than 0.7?
OUTPUT: 0

INPUT: Decide: is the reported value of protein stability index for HRFCAPSLSASD equal to or greater than 0.7?
OUTPUT: 1

INPUT: Decide: is the reported value of protein stability index for FLLVGLLIVGCG equal to or greater than 0.7?
OUTPUT: 0

INPUT: Decide: is the reported value of protein stability index for LFVVFVLLTFFV equal to or greater than 0.7?
OUTPUT: 0

INPUT: Decide: is the reported value of protein stability index for CRQDWMCFVYLS equal to or greater than 0.7?
OUTPUT: 0

INPUT: Decide: is the reported value of protein stability index for MMYTLSMLLRLR equal to or greater than 0.7?
OUTPUT: 0

====

What protein stability index was measured for each of the following?
Tested on: Saccharomyces cerevisiae
Assay: protein stability index of tFT-peptide fusion (C-terminal peptide) (PSI (0-1 scale)); higher = more stable (slower turnover)
Details: genetic background: das1 deletion; temperature: 37 C
Just the number.

INPUT: Fill blank: measured protein stability index of the sequence VCCSILFSAFLV is ____.
OUTPUT: 0.653

INPUT: Fill blank: measured protein stability index of the sequence GLVVVVRLQYSP is ____.
OUTPUT: 0.458

INPUT: Fill blank: measured protein stability index of the sequence TCPFTIHRLKVG is ____.
OUTPUT: 0.746

INPUT: Fill blank: measured protein stability index of the sequence CFFFPCFSFRFL is ____.
OUTPUT: 0.528

INPUT: Fill blank: measured protein stability index of the sequence SWELKWVYARVV is ____.
OUTPUT: 0.674

INPUT: Fill blank: measured protein stability index of the sequence LWGLVWGGVWGV is ____.
OUTPUT: 0.729

INPUT: Fill blank: measured protein stability index of the sequence LVAGFVFIFFYR is ____.
OUTPUT: 0.49

INPUT: Fill blank: measured protein stability index of the sequence CFVQVGGLVKIS is ____.
OUTPUT: 0.731

INPUT: Fill blank: measured protein stability index of the sequence GFSVFSHSVWVR is ____.
OUTPUT: 0.271

INPUT: Fill blank: measured protein stability index of the sequence LVIFSLLFSFSH is ____.
OUTPUT: 0.394

From: the supplement of paper PMC10724198
